- Tested on: Inhibin beta A chain (activin A)
- Assay Comment: small molecules binding activin A – biochemical, small-molecule microarray, 635 nm fluorescence scan, primary screen (AID 1107);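 also: mouse activin A protein probed at 4.33 µg/mL on printed slides; score merges bound-protein fluorescence near 667 nm with spot signal-to-noise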
- Condition Info: INHBA, higher = more signal
Label true (1) when composite z-score is at or above 0.8; anything below gets false (0).

molecule="COc1cc2c(cc1O)C(c1ccc(CN3CCCC3)cc1)N(Cc1sc3ccccc3c1Cl)CC2 (centres undefined)" group_label="true (1)"
molecule=CC[C@@H]1C=C(C(=O)O)[C@H](c2ccc(C(C)C)cc2)N1S(=O)(=O)c1ccc(C)cc1 group_label="false (0)"
molecule="C=CCC(OC(C)=O)[C@@H]1[C@@H](N(Cc2ccc(-c3cccc(C(F)(F)F)c3)o2)C(=O)c2ccc(C)cc2)c2cc(OCCCO)ccc2N1C(=O)c1ccc2ccccc2n1 (some centres undefined)" group_label="true (1)"
molecule=C=CCOC(=O)[C@@H]1[C@H]2C(=O)O[C@H](c3ccccc3)[C@H](c3ccccc3)N2[C@H](c2ccc(OCCOC(=O)[C@H]3C[C@H]4C(=O)N[C@@H](CCCC[N+](C)(C)C)C(=O)N4[C@H]3c3cccc(OCCO)c3)cc2)[C@@]12C(=O)Nc1ccc(I)cc12 group_label="false (0)"
molecule=[N-]=[N+]=NCc1ccccc1C[C@]1(C(=O)N2CCOCC2)N=C(c2ccc(OCCCO)cc2)O[C@H]1c1ccccc1 group_label="false (0)"
molecule=O=C1O[C@@H](c2ccccc2)[C@@H](c2ccccc2)N2[C@@H](c3ccc(O)cc3)[C@]3(C(=O)Nc4ccccc43)[C@@H](C(=O)N3CCCCCCC3)[C@H]12 group_label="true (1)"
molecule="C=CCC(OC(C)=O)[C@@H]1[C@@H](N(Cc2cc3ccccc3o2)C(=O)c2ccc(C)cc2)c2cc(OCCCO)ccc2N1C(=O)c1ccc(-c2ccccc2)cc1 (some centres undefined)" group_label="true (1)"
molecule=Cc1ccc(F)cc1S(=O)(=O)N[C@@H]1CCN(Cc2ccc(C(F)(F)F)cc2)C1 group_label="false (0)"
molecule=CCCCC(=O)N(Cc1ccccc1F)[C@@H]1CC(C(=O)NCCO)=C[C@H](Oc2c(I)cc(CO)cc2OC)[C@H]1O group_label="false (0)"
molecule="O=C1C2C=CC(C(O)c3ccc(Br)cc3)N(n3cnnc3)C2C(=O)N1Cc1ccccc1 (centres undefined)" group_label="false (0)"
molecule=CN(C)CCCN1C(=O)[C@@]2(c3ccc([N+](=O)[O-])cc3)CC(=O)N(C3CCCCC3)[C@@H]2c2ccc(CO)cc21 group_label="false (0)"
molecule=COCCOC(=O)N1C(=O)[C@@]2(c3cc(C#CCCO)ccc31)[C@H](c1ccc(O)cc1)N1[C@H](c3ccccc3)[C@H](c3ccccc3)OC(=O)[C@H]1[C@@H]2C(=O)N1CCCCCCC1 group_label="true (1)"
molecule=O=C(NCCN1CCOCC1)[C@@H]1c2ccccc2C(=O)N(Cc2cc(F)cc(C(F)(F)F)c2)[C@H]1c1ccc(CO)cc1 group_label="false (0)"
molecule=CC(=O)NCCCC[C@@H]1NC(=O)[C@@H]2C[C@H](C(=O)NCc3ccc(F)cc3)[C@H](c3ccc(O)cc3)N2C1=O group_label="false (0)"
molecule=Cc1ccc([C@H]2C(C(=O)O)=C[C@@H](C(C)C)N2S(=O)(=O)c2ccc(C)cc2)cc1 group_label="false (0)"
molecule=C=CC[C@]1(C(=O)O)N=C(c2ccc(OCCCO)cc2)O[C@H]1c1ccccc1CN=[N+]=[N-] group_label="true (1)"
molecule=CCOC(=O)C1=CC[C@@H](c2ccccc2)N(S(=O)(=O)c2ccc(C)cc2)[C@H]1c1ccc(C#N)cc1 group_label="false (0)"
molecule=Oc1ccc2cc[n+](Cc3cccc(OC(F)(F)F)c3)cc2c1 group_label="true (1)"
molecule=COCCOC(=O)N1C(=O)[C@@]2(c3ccccc31)[C@H](C(=O)N1CCCCCCC1)[C@H]1C(=O)O[C@H](c3ccccc3)[C@H](c3ccccc3)N1[C@@H]2c1ccccc1OCCO group_label="true (1)"
molecule=COCCOC(=O)N1C(=O)[C@@]2(c3ccccc31)[C@H](c1ccc(O)cc1)N1[C@H](c3ccccc3)[C@H](c3ccccc3)OC(=O)[C@H]1[C@@H]2C(N)=O group_label="false (0)"
molecule=Cc1ccc(N2C(=O)c3ccccc3[C@@H](C(=O)NCC(C)C)[C@@H]2c2ccc(CO)cc2)nc1 group_label="false (0)"
molecule=C=C(CCCC)C(=O)CC[C@H](OC(C)=O)c1ccc(CO)o1 group_label="true (1)"
molecule=O=C(NCC(F)(F)F)[C@@H]1c2ccccc2C(=O)N(Cc2ccccc2)[C@H]1c1ccc(CO)cc1 group_label="false (0)"
molecule=CN(C)CCCCCCNC(=O)[C@@H]1C[C@@H]2C(=O)N[C@@H](Cc3ccccc3)C(=O)N2[C@@H]1c1cccc(OCCO)c1 group_label="false (0)"
molecule="CN1C(=O)C2C=CC(C(O)C(c3ccccc3)c3ccccc3)N(Nc3ccccc3)C2C1=O (centres undefined)" group_label="false (0)"
molecule=C=CCN1C(=O)[C@@]2(O[C@@H](CCO)[C@H]([Si](C)(C)c3ccc(OC)cc3)[C@H]2C)c2cc(NC(C)=O)ccc21 group_label="false (0)"
molecule="C=CCC(OC(C)=O)[C@@H]1[C@@H](N(Cc2cc3ccccc3o2)C(=O)c2ccc(-c3ccccc3)cc2)c2cc(OCCCO)ccc2N1C(=O)Cc1ccc2ccccc2c1 (some centres undefined)" group_label="true (1)"
